Entries and their measured melting point follow.

Known melting point results, listed for orientation:
>  <Compound>
COC(=O)c1c(N(Cc2ccc3ccccc3c2)C(C)=O)sc2cc(O)ccc12

>  <Observation Type>
melting point

>  <Value Measured>
200 to 202 °C

$$$$
>  <Compound>
COC(=O)c1c(N(Cc2ccc(C(C)C)cc2)C(C)=O)sc2cc(O)ccc12 [Example 42]

>  <Observation Type>
melting point

>  <Value Measured>
141 to 145 °C

$$$$

Please fill in: melting point reported for COC(=O)c1c(N(Cc2ccc(C(C)C)cc2)C(C)=O)sc2c(Cl)c(O)ccc12 [Example 41] = 183 to 186 °C

Note to self: melting point recorded for `COC(=O)c1c(N(Cc2ccccc2C(F)(F)F)C(C)=O)sc2c(Cl)c(O)ccc12` was 182 to 186 °C

Please fill in: melting point reported for CC(=O)N(Cc1ccccc1)c1sc2c(Cl)c(O)ccc2c1C(=O)O [Example 66] = 240 to 245 °C

In plain terms, `CC(=O)N(Cc1ccccc1F)c1sc2cc(O)ccc2c1C(=O)O` has a documented melting point of 140 to 145 °C

Lab note: measured melting point of COC(=O)c1c(N(Cc2ccc3ccccc3c2)C(C)=O)sc2c(Cl)c(O)ccc12 [Example 33] was 185 to 190 °C

Record `CCOC(=O)c1c(N(Cc2ccccc2Cl)C(C)=O)sc2cc(O)ccc12` . Reported melting point: 176 to 180 °C

For record COC(=O)c1c(N(CCc2ccccc2)C(C)=O)sc2cc(O)ccc12 [Example 36] the listed melting point is 190 to 194 °C

---

Observation Type: melting point

>  <Chemical Smiles>
COC(=O)c1c(N(Cc2ccc(F)cc2F)C(C)=O)sc2c(CN(C)C)c(O)ccc12

>  <melting point>
118 to 122 °C

$$$$

Kindly review the next molecule as well.
Entry `CC(=O)N(Cc1ccccc1)c1sc2cc(O)ccc2c1C(=O)O` ; melting point = 130 to 135 °C

---

# Assay Protocol: Cytotoxicity, microtetrazolium test (MTT)
# Condition Label: dog, MDCK cells, CC50 (MDCK), mean ±SD
// assign 1 if CC50 at 48 h falls strictly below 100 µg/mL, else 0 (ties count as 0)

# input Lab note: CC50 at 48 h threshold 100 µg/mL. Does this molecule come in strictly under it? `CC(=O)N(Cc1ccccc1)c1sc2cc(O)ccc2c1C(=O)O`
# output 0

# input Determine whether this molecule shows CC50 at 48 h lower than 100 µg/mL (ties excluded): `COC(=O)c1c(N(Cc2ccccc2)C(C)=O)sc2c(CN(C)C)c(O)ccc12`
# output 0

# input Given `CC(=O)N(Cc1ccc(F)cc1F)c1sc2c(Cl)c(O)ccc2c1C(=O)O` , is recorded CC50 at 48 h strictly lower than 100 µg/mL?
# output 0

# input Input `CNC(=O)c1c(N(Cc2ccc(F)cc2)C(C)=O)sc2c(Cl)c(O)ccc12` ; condition: CC50 at 48 h strictly below 100 µg/mL. Does it hold?
# output 1

# input Does this molecule meet the criterion CC50 at 48 h < 100 µg/mL? COC(=O)c1c(N(C(C)=O)C(C)c2ccccc2)sc2cc(O)ccc12 (stereo not drawn)
# output 1

# input # TODO verify CC50 at 48 h < 100 µg/mL strictly for this molecule: `COC(=O)c1c(N(Cc2ccc(C(C)C)cc2)C(C)=O)sc2cc(O)ccc12`
# output 1
